Experiment: Tmax in Sprague-Dawley rat at 10 mg/kg, po
Format: ADME, organism-based
Design: dose 10 mg/kg, route oral
Conditions: in vivo
Measured metric: Tmax (h)
The figure you give is taken to be in h; do not add the unit.

Please indicate Tmax recorded for `Cn1nc(C(F)(F)F)cc1C(=O)Nc1ccc(S(=O)(=O)N2CCCC[C@H]2CCN2CCOCC2)cc1`
1.1

====

Test: Metabolic stability of the compound in mouse liver S9 fractions assessed as compound remaining after 1 hr
Format: ADME, subcellular, S9 fraction
Conditions: read-out: Stability
Measured metric: remaining at 1 h (%)
Hi! Could you send only the number? It should be in %, unit omitted.

Item `Cn1nc(C(F)(F)F)cc1C(=O)Nc1ccc(S(=O)(=O)N2CCCCC2)cc1` : provide remaining at 1 h
79
